assayed system: human NRP1 (human, UniProt O14786)
protocol: competition phage ELISA
Quick list: IC50 per entry.
Field format: number, assumed nM, no unit text.

binder	IC50 (nM)
YW107.4.20 (antibody, V domains shown) VH: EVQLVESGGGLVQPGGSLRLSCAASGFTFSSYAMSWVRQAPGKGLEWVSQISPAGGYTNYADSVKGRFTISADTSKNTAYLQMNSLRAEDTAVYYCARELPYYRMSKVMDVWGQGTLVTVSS VL: DIQMTQSPSSLSASVGDRVTITCRASQRTHSYLAWYQQKPGKAPKLLIYGASSRASGVPSRFSGSGSGTDFTLTISSLQPEDFATYYCQQYYGSPHTFGQGTKVEIKR	0.45

Please turn your attention to the following entry.
For record YW107.4.66 (antibody, V domains shown) VH: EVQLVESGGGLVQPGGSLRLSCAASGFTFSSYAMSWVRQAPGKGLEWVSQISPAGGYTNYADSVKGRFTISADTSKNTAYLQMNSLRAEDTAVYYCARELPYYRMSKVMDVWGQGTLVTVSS VL: DIQMTQSPSSLSASVGDRVTITCRASQYISSYLAWYQQKPGKAPKLLIYGASSRASGVPSRFSGSGSGTDFTLTISSLQPEDFATYYCQQYIVSPLTFGQGTKVEIKR the listed IC50 is 0.45
